Cited source for all entries: paper PMC9720396

target: T1, host protein UBE3A (Abcam), coupled to Luminex beads (Homo sapiens, UniProt Q05086); assay: Luminex bead-based binding assay; UBE3A (Abcam) covalently linked to carboxylated beads; Abs serially diluted 1:3 from 2 µg/ml in PBS with 0.05% NaN3, 0.05% Tween 20, 1% BSA and 1% milk; 2 hours at room temperature; detected with PE goat anti-human IgG; conditions: both partners purified
T1 construct: UBE3A, host protein; bought from Abcam (printed there as UBE34); also called UBE34; source: bought: Abcam
T1 sequence (Q05086 whole entry): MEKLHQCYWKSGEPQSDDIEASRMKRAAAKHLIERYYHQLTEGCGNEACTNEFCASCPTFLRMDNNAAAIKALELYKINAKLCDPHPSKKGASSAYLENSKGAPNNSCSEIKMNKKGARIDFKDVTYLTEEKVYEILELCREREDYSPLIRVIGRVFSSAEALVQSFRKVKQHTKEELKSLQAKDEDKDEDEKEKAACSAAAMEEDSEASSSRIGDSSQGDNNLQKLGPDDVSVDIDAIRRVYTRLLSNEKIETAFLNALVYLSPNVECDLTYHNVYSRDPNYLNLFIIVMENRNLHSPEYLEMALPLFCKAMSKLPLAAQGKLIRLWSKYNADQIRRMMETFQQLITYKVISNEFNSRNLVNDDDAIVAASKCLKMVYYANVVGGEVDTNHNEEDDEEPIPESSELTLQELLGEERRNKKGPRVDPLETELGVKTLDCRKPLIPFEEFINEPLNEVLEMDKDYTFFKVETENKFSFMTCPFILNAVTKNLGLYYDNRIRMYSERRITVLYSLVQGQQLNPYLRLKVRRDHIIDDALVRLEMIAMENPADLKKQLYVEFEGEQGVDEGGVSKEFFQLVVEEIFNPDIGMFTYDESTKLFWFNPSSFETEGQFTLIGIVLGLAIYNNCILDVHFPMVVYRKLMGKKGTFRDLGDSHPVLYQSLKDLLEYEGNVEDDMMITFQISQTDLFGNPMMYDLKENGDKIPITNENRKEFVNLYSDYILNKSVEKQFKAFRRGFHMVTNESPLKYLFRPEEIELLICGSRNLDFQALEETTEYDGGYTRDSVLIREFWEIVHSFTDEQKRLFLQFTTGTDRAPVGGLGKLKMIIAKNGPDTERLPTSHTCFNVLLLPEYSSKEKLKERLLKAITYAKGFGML
measure: binding result

INSERT INTO results (binder, measure, recorded_measurement) VALUES
  ('CH103 VL mutant with the 3-aa insertion (DKV) (antibody, V domains shown, as the heavy chain of m10 (CH103); as the light chain of m10 (CH103) with DKV inserted as in CH106; recombinant IgG; also called 3-aa (DKV) insertion; source: Expi293, transiently transfected, purified (Protein A agarose)) V domain 1: QVQLQESGPGVVKSSETLSLTCTVSGGSMGGTYWSWLRLSPGKGLEWIGYIFHTGETNYSPSLKGRVSISVDTSEDQFSLRLRSVTAADTAVYFCASLPRGQLVNAYFRNWGRGSLVSVTA V domain 2: SYELTQPPSVSVSPGQTATITCSGDKVASTNVCWYQVKPGQSPEVVIFENYKRPSGIPDRFSGSKSGSTATLTIRGTQAIDEADYYCQVWDSFSTFVFGSGTQVTV', 'binding result', 'binds'),
  ('CH103 VL D85E mutant (antibody, V domains shown, as the heavy chain of m10 (CH103); as the light chain of m10 (CH103); recombinant IgG; source: Expi293, transiently transfected, purified (Protein A agarose)) V domain 1: QVQLQESGPGVVKSSETLSLTCTVSGGSMGGTYWSWLRLSPGKGLEWIGYIFHTGETNYSPSLKGRVSISVDTSEDQFSLRLRSVTAADTAVYFCASLPRGQLVNAYFRNWGRGSLVSVTA V domain 2: SYELTQPPSVSVSPGQTATITCSGASTNVCWYQVKPGQSPEVVIFENYKRPSGIPDRFSGSKSGSTATLTIRGTQAIDEAEYYCQVWDSFSTFVFGSGTQVTV', 'binding result', 'binds'),
  ('CH103 VL E45D mutant (antibody, V domains shown, as the heavy chain of m10 (CH103); as the light chain of m10 (CH103); recombinant IgG; also called the VL E45D mutant; source: Expi293, transiently transfected, purified (Protein A agarose)) V domain 1: QVQLQESGPGVVKSSETLSLTCTVSGGSMGGTYWSWLRLSPGKGLEWIGYIFHTGETNYSPSLKGRVSISVDTSEDQFSLRLRSVTAADTAVYFCASLPRGQLVNAYFRNWGRGSLVSVTA V domain 2: SYELTQPPSVSVSPGQTATITCSGASTNVCWYQVKPGQSPDVVIFENYKRPSGIPDRFSGSKSGSTATLTIRGTQAIDEADYYCQVWDSFSTFVFGSGTQVTV', 'binding result', 'binds');
